B1: Zinc finger homeobox protein 4, residues 2183 to 2238; numbered along this chain, Q86UP3 (parent)
chain: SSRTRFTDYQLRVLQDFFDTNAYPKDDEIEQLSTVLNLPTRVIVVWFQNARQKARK

# Variants of: B1
# assay overview: abundance fitness (aPCA) (normalised: wild type 0, dead -1); higher = more abundant; growth selection in yeast, the domain comes from the species named
# condition label: Homo sapiens
Kind request: treat -0.1 as inclusive, so abundance fitness at -0.1 or higher is yes, anything lower is no.

L36R    no
I29A    no
P24V    no
R12S    no
Y9Q    yes

Turning to the following variant.
Ask: hey, is abundance fitness for this one >= -0.1? "D19L"
Result: yes
